# Test system: UACC-257 melanoma
# test.summary: NCI-60 one-dose screen, 48 h (100 = growth as untreated, 0 = no growth, -100 = all killed)
# experimental.parameters: 10 µM
About 83,000 compounds went through this panel and 20% of them were active in at least one assay; those are over-represented in the sample as a whole.
Quick list: growth per entry.
API: value field is a number in %; no unit string.

CN1CCN(c2ccc(NC(=O)Nc3ccc4c(ccn4-c4cccc(C(N)=O)n4)c3)cc2C(F)(F)F)CC1 ... -14
O=C(COc1ccc(C2SCC(=O)N2c2ccc(F)cc2)cc1)c1ccccc1 (stereo not given) ... 100
N=c1c2cc(-c3ccccc3)oc2ncn1/N=C/c1ccccc1 ... 85.6

q: For the compound `O=C(CSc1nnc(-c2ccc(Cl)cc2)n1-c1ccccc1)Nc1ccc(F)cc1` , what growth is on record?
a: 98.8

q: Data request, read-out growth, for CCOC(=O)C1=C(C)Nc2nc3ccccc3n2C1c1cccc(Br)c1 (stereo not given)
a: 87.1

q: If you can, please state the reported growth value of `NC(=S)N/N=C(/C=C/c1cn(-c2ccccc2)nc1-c1ccc(Cl)cc1)c1cc2ccccc2oc1=O` .
a: 76.3

q: Requested read-out: growth. Entry: `Nc1nc(-c2cccc([N+](=O)[O-])c2)c(N=Nc2ccccc2Cl)s1`
a: 104

q: GET /values?readout=growth&item= `Cn1cc2c(c1)-c1c(sc3nc(-c4ccc(NC(=O)Nc5cc(C(C)(C)C)on5)cc4)cn13)CC2`
a: 93.1

q: Entry `Cn1nc(Nc2ccccc2)c(C(=O)NN)c1N` has what growth?
a: 102

q: Which growth is listed for `O=C1Nc2ccc(Br)cc2/C1=N\c1nnc(-c2ccc(Cl)cc2)o1` ?
a: 91.6

====

# Tested on: MALME-3M melanoma
# test.summary: NCI-60 one-dose screen, 48 h (100 = growth as untreated, 0 = no growth, -100 = all killed)
# experimental.parameters: 10 µM unless noted
The panel holds about 83,000 compounds, 20% with a hit somewhere; the sample as a whole holds those more often.
Lab note: cut-off is 70%. Strictly less in growth is t. Exactly 70% or more is f.

COc1ccc(-c2cc(-c3ccc(Cl)cc3)nc3nc(N)nn23)cc1 ... f
COc1ccc(-c2nc3cc(Cl)c(Cl)cc3n2CC(=O)N=Nc2c(O)[nH]c3ccc(Br)cc23)cc1 ... t
COc1cc(/C=C/C(=O)c2ccc(N3CCN(C)CC3)cc2)ccc1F ... f
CC(C)=CCc1c2c(c(O)c3c1O[C@]14C(=C[C@@H]5C[C@H]1C(C)(C)O[C@@]4(C/C=C(/C)C(=O)O)C5=O)C3=O)CC(O)C(C)(C)O2 (some centres not stated) ... t
C#C[C@]1(O)CC[C@H]2[C@@H]3CC=C4c5sc(Nc6ccncc6)nc5CC[C@]4(C)[C@H]3CC[C@@]21C ... t

q: API: query returns whether the compound falls strictly under 70% in growth. Query: `O=C(Nc1cccc(Cl)c1)Nc1nc2ccc(-c3cccc4ccccc34)cc2s1`
a: t

q: Is growth of `CC1CCN(S(=O)(=O)c2ncsc2-c2ccccc2)CC1` strictly below 70%?
a: f

q: growth strictly < 70% for this compound? COCCC[C@H]1O[C@@](O)([C@H](C)[C@@H]2CC(OC)C(O)/C=C(C)/C=C(C)/C=C(\C)C(OC3O[C@@H](C)[C@H](O)C(O)[C@@H]3O)C(C)/C=C(C)/C=C(OC)/C=C(\C)C(=O)O2)C(OC)C(O)[C@]1(C)O[C@H]1C[C@@H](O)[C@H](O[C@H]2C[C@](C)(O)[C@H](O)C(C)O2)C(C)O1 (some centres not stated)
a: t

q: Is it true that growth reported for `O=C(CSc1ccc(-c2nc3ccccc3[nH]2)cn1)N1CCN(c2ccccc2F)CC1` is less than 70%?
a: f

q: Confirm or reject: growth of C#CCOc1ccccc1C(Nc1ccccc1)c1nnnn1C1CCCCC1 (configuration not stated) lies strictly below 70%
a: f

q: Regarding `CCN1CCN(Cc2ccc(C(=O)Nc3nc4ccc(Oc5ccnc(C(=O)NC)c5)cc4s3)cc2C(F)(F)F)CC1` , kindly confirm whether its growth is beneath 70%.
a: t

q: In the record for `Nc1nc(-c2cccc([N+](=O)[O-])c2)c(N=Nc2cccc(Cl)c2)s1` , is growth less than 70%?
a: f

q: In the record for `O=C(COc1cccc2cccnc12)Nc1ccc(C(=O)/C=C/c2ccc(Cl)cc2)cc1` , is growth less than 70%?
a: f

q: Hello, is growth of the following compound strictly smaller than 70%? `COc1ccc(-c2nc(SCCC(C)C)nc(N/N=C\c3ccc(O)cc3)c2C#N)cc1`
a: f

q: Is it true that growth reported for C#CCOc1ccc(C(Nc2ccc(Cl)cc2)c2nnnn2C2CCCCC2)cc1 (configuration not stated) is less than 70%?
a: f

q: Here's an entry: `O=C(/C=C/c1cn(-c2ccccc2)nc1-c1ccc(Cl)cc1)c1cc2ccccc2oc1=O` . Is its growth below 70%?
a: t

q: Quick check: does `COc1cc(CNC(=O)Cc2ccccc2[N+](=O)[O-])ccc1OCC(=O)NO` have growth under 70%?
a: f

====

# Test system: HCT-15 colon
# test.summary: NCI-60 one-dose screen, 48 h (100 = growth as untreated, 0 = no growth, -100 = all killed)
# experimental.parameters: 10 µM unless noted
This is part of a sample that, as a whole, favours compounds with a hit. Of some 83,000 tested, about 20% had one in any assay.
// growth lookup, one value per entry
Unit % implied. Number only.

Examples with their reported growth follow.
CC(=O)Nc1nc2c(s1)C1=CC[C@H]3[C@@H]4CC[C@H](C(C)=O)[C@@]4(C)CC[C@@H]3[C@@]1(C)CC2 ... 26.4
C=CCn1c(SCC(=O)Nc2cccc(C(=O)/C=C/c3ccc(Br)cc3)c2)nc2ccccc2c1=O ... 76.3
Clc1ccc(-c2nc3ccc(/C(=N\N=C\c4ccccc4)c4ccccc4)cc3[nH]2)cc1 ... 72
CNC(=O)c1cc(N2CCc3cc(NC(=O)Nc4ccc(Cl)c(Cl)c4)ccc32)ccn1 ... 63

q: What growth value was documented for this molecule, `O=c1[nH]c(CCl)nc2c1cnn2-c1ccccc1` ?
a: 99.9

q: // lookup growth for `O=C(NCCCNc1cc(-c2cn(-c3ccccc3)nc2-c2cccc(O)c2)ccn1)Nc1cc(C(F)(F)F)cc(C(F)(F)F)c1`
a: 33.4

q: Please look up its growth: `CCCCCCNC(=O)Oc1ccc(/C(=C(/C)c2ccc(OC)cc2)c2ccc(OCCN3CCCC3)cc2)cc1`
a: 17.3

q: What measured growth goes with `COc1cc(O)c2c(c1)[C@H]1O[C@@H]1C[C@H](O)[C@H](O)C(=O)/C=C\C[C@H](C)OC2=O` ?
a: 28.7

q: Can you share its growth? I mean this molecule: `O=C1c2cc(Br)ccc2-n2c1nc1cc(Br)ccc1c2=O`
a: 64.8

====

# System: MDA-MB-231 breast
# test.summary: NCI-60 one-dose screen, 48 h (100 = growth as untreated, 0 = no growth, -100 = all killed)
# experimental.parameters: 10 µM unless noted
The panel holds about 83,000 compounds, 20% with a hit somewhere; the sample as a whole holds those more often.
property.measured: growth (%)
Write it as a number; the unit % goes unstated.

O=C(CSc1ccc(-c2nc3ccccc3[nH]2)cn1)N1CCN(c2ccccc2F)CC1 ... 100
CC1CCc2c(sc3nc(SCC(=O)N/N=C/c4ccc(Cl)cc4)n(-c4ccccc4)c(=O)c23)C1 (stereo unspecified) ... 89.5
COc1ccc(S(=O)(=O)NCCCNc2nccc(-n3cnc4ccccc43)n2)cc1 ... 84.1
COc1ccc(-c2nnc(SCc3ccc(O)c4ncccc34)n2-c2ccccc2)cc1 ... 30.9
CCN1C/C(=N\S(=O)(=O)c2ccccc2)N(CC)C1=S ... 104

q: Fill blank: measured growth of the compound CN1C(=O)N(C)C2C1NN=c1s/c(=C\c3ccccn3)c(=O)n12 (stereo unspecified) is ____.
a: 98

====

# System: SK-MEL-28 melanoma
# test.summary: NCI-60 one-dose screen, 48 h (100 = growth as untreated, 0 = no growth, -100 = all killed)
# experimental.parameters: 10 µM unless noted
Compounds without any hit were thinned out: in the full panel of roughly 83,000, 20% have a hit.
# binarize growth: threshold 60% inclusive, high side Criterion met, low side Criterion not met

q: Exam item: decide whether the reported growth for `CC(=O)Oc1ccc(CCN2C(=O)CSC2=S)cc1` is at least 60%.
a: Criterion met

q: Check this compound for growth at or above 60%: `Clc1ccc(-c2csc(N/N=C/c3nc4ccccc4n3C3CC3)n2)cc1`
a: Criterion met

q: Please indicate if the recorded growth for `CN(C)CCn1c2ccc(N)cc2c2nc3ccccc3nc21` meets or exceeds 60%.
a: Criterion not met

q: Confirm if growth reported for the compound `Oc1ccc(CSc2nnc(-c3ccc(Br)cc3)n2-c2ccccc2)c2cccnc12` is 60% or above.
a: Criterion not met

Cited source for all entries: PubChem BioAssay (NCI)
